assayComment: E. coli acrAB mutant growth effects, primary screen, E. coli filamentation inducers, strain DRC39, OD650, 48 h (AID 1179);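 further: screen aims at cell division blockers that make cells filament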
cond: E. coli DRC39 delta-acrAB growth, higher = more signal, called active from +8 up or from −8 down

- itemSmiles: "COc1ccc(CCNC(=O)[C@@]2(Sc3ccc(C)cc3)CC(=O)N(C(C)C)[C@@H]2c2ccc(CO)cc2)cc1"
  z-score: -0.602
- itemSmiles: "CCCCCCc1nc(-c2ccc(OC)nc2)cc2c1[Si](C(C)C)(C(C)C)OC2"
  z-score: 0.212
- itemSmiles: "NC(=O)NCC#Cc1ccc2c(c1)[C@]1(C(=O)N2)[C@H](C(=O)N2CCCCCCC2)[C@H]2C(=O)O[C@H](c3ccccc3)[C@H](c3ccccc3)N2[C@@H]1c1ccc(O)cc1"
  z-score: -0.194
- itemSmiles: "CC(C)[Si](C#CCCCC#N)(O[C@H](c1ccccc1)c1cn([C@H](C)c2ccccc2)nn1)C(C)C"
  z-score: -0.482

* * *

System: Wnt5a (protein binding on small-molecule microarray)
assayComment: Wnt5a binders on small-molecule microarray, primary screen, biophysical, 635/667 nm fluorescence (AID 1142);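 further: fluorescence read at 667 nm with signal to noise per printed feature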
cond: 635 nm fluorescence, higher = more signal

- compound: "CC(C)C[C@H]1NC(=O)[C@@]23C(=O)N[C@@H](Cc4ccccc4)C2[C@H](C)[C@@]2(C)O[C@H]2C3/C=C/C/C=C\\CNC(=O)[C@@H]2CCCN2C1=O (some centres not stated)"
  targetOfAssay: "Wnt5a (protein binding on small-molecule microarray)"
  composite z-score: 0.275
- compound: "COC(=O)C1=CC(CCCO)=CC(C2CC2)N(Cc2cccc(OC(F)(F)F)c2)C=C1C(=O)OC (configuration not stated)"
  targetOfAssay: "Wnt5a (protein binding on small-molecule microarray)"
  composite z-score: 0.172
- compound: "CC(C)CNC(=O)[C@@H]1c2ccccc2C(=O)N(CC23CC4CC(CC(C4)C2)C3)[C@H]1c1ccc(CO)cc1"
  targetOfAssay: "Wnt5a (protein binding on small-molecule microarray)"
  composite z-score: 0.0626
- compound: "[N-]=[N+]=NCc1ccccc1C[C@]1(C(=O)N2CCCCC2)N=C(c2ccc(OCCCO)cc2)O[C@H]1c1ccccc1"
  targetOfAssay: "Wnt5a (protein binding on small-molecule microarray)"
  composite z-score: 0.601
- compound: "CCCC=C(CCC)[C@@H](NC(=O)c1ccccc1)c1ccc(C(=O)OC)cc1"
  targetOfAssay: "Wnt5a (protein binding on small-molecule microarray)"
  composite z-score: 0.675
- compound: "COCCOC(=O)N1C(=O)[C@@]2(c3cc(C#Cc4ccc(OC)cc4)ccc31)[C@H](C(=O)N1CCCCCCC1)[C@H]1C(=O)O[C@H](c3ccccc3)[C@H](c3ccccc3)N1[C@@H]2c1ccccc1OCCO"
  targetOfAssay: "Wnt5a (protein binding on small-molecule microarray)"
  composite z-score: 1.15
- compound: "CN(C)CCCC[C@@H]1NC(=O)[C@H]2C[C@@H](C(=O)NCc3ccc(F)cc3)[C@@H](c3ccc(O)cc3)N2C1=O"
  targetOfAssay: "Wnt5a (protein binding on small-molecule microarray)"
  composite z-score: 0.727

* * *

assayComment: E. coli acrAB mutant growth effects, primary screen, E. coli filamentation inducers, strain DRC39, OD650, 24 h (AID 1178);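 further: growth measured as culture turbidity by optical density at 650 nm; test concentration not given here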
cond: higher = more signal, called active from +8 up or from −8 down
Listing of recorded z-score by entry.
measuredEndpoint: z-score

- compound: "O=C1c2ccccc2[C@](Cc2ccccc2I)(C(=O)O)[C@H](c2ccc(CO)cc2)N1Cc1ccccc1"
  measuredEndpoint: "z-score"
  reported: 0.656
- compound: "COC(=O)[C@@]1(Cc2ccc(F)cc2)[C@H]2c3cc(C(=O)N(C)C)n(CCO)c3C[C@H]2CN1C(=O)c1ccccc1"
  measuredEndpoint: "z-score"
  reported: -0.356
- compound: "CC(C)CNC(=O)[C@@H]1c2ccccc2C(=O)N(CC23CC4CC(CC(C4)C2)C3)[C@H]1c1ccc(CO)cc1"
  measuredEndpoint: "z-score"
  reported: 0.256
- compound: "C[C@H]1C2[C@H](Cc3ccccc3)NC(=O)[C@]23C(=O)NCC(=O)N2CCC[C@H]2C(=O)NC/C=C\\C/C=C/C3[C@@H]2O[C@]12C (some centres undefined)"
  measuredEndpoint: "z-score"
  reported: 1.02

* * *

System: Wnt5a (protein binding on small-molecule microarray)
assayComment: Wnt5a binders on small-molecule microarray, primary screen, biophysical, 635/667 nm fluorescence (AID 1142);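 further: fluorescence read at 667 nm with signal to noise per printed feature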
cond: 635 nm fluorescence, higher = more signal
measuredEndpoint: composite z-score

- itemSmiles: "COCCOC(=O)N1C(=O)[C@@]2(c3ccccc31)[C@H](c1ccc(OCCO)cc1)N1[C@H](c3ccccc3)[C@H](c3ccccc3)OC(=O)[C@H]1[C@@H]2C(=O)N1CCN(c2ncccn2)CC1"
  targetOfAssay: "Wnt5a (protein binding on small-molecule microarray)"
  measuredEndpoint: "composite z-score"
  reported: 0.453
- itemSmiles: "C=CCN1C(=O)[C@]2(O[C@H](CCn3cc([C@H](O)c4ccccc4)nn3)[C@@H]([Si](C)(C)c3ccc(OC)cc3)[C@@H]2C)c2cc(N3C(=O)c4cccc5cccc3c45)ccc21"
  targetOfAssay: "Wnt5a (protein binding on small-molecule microarray)"
  measuredEndpoint: "composite z-score"
  reported: 0.0898
- itemSmiles: "COCCOC(=O)N1C(=O)[C@@]2(c3cc(C#CC4=CCCCC4)ccc31)[C@H](c1ccccc1OCCO)N1[C@H](c3ccccc3)[C@H](c3ccccc3)OC(=O)[C@H]1[C@@H]2C(N)=O"
  targetOfAssay: "Wnt5a (protein binding on small-molecule microarray)"
  measuredEndpoint: "composite z-score"
  reported: 0.288

* * *

assayComment: small-molecule binders of probe aNOTCH2, primary screen, biochemical, small-molecule microarray, 635/667 nm fluorescence (AID 1121);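 further: score merges feature fluorescence read at 667 nm with its signal to noise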
cond: higher = more signal
Listing of recorded composite z-score by entry.

- compound: "CC=CC(O)C1C=CC2C(=O)N(C)C(=O)C2N1NC(=O)OC(C)(C)C (centres undefined)"
  composite z-score: -0.173
- compound: "O=C1N(Cc2ccccc2)c2ccccc2[C@H]2OC(c3ccc(OCCCO)cc3)=N[C@@]12Cc1ccccc1"
  composite z-score: -0.131
- compound: "CC#CCO[Si](C#CCCCCCC)(C(C)C)C(C)C"
  composite z-score: -0.192
- compound: "C=CCN1C(=O)[C@]2(O[C@H](CCn3cc([C@H](O)c4ccccc4)nn3)[C@@H]([Si](C)(C)c3ccc(OC)cc3)[C@@H]2C)c2cc(N3C(=O)c4cccc5cccc3c45)ccc21"
  composite z-score: -0.126

* * *

assayComment: binders of probe aFGF10 on microarray, primary screen, stem cell growth factor project, biochemical, small-molecule microarray, fluorescence 635/667 (AID 1071);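 further: score merges 667 nm spot intensity and signal to noise from triplicate slides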
cond: higher = more signal
Listing of recorded composite z-score by entry.
measuredEndpoint: composite z-score

- molecule: "CO[C@H]1O[C@H](CO)[C@@H](OC(=O)Nc2ccc(C(F)(F)F)cc2)[C@H](OC(=O)Nc2ccccc2-c2ccccc2)[C@H]1OC(=O)Nc1ccccc1-c1ccccc1"
  measuredEndpoint: "composite z-score"
  reported: 0.988
- molecule: "CCOC(=O)C[C@H]1[C@H](OC(=O)c2ccc(-c3ccccc3)cc2)[C@@H](NC(=O)c2ccc3ccccc3c2)c2cc(OCCCO)ccc2N1C(=O)c1ccccc1"
  measuredEndpoint: "composite z-score"
  reported: 0.557
- molecule: "NC(=O)[C@@]1(CCS(=O)(=O)c2ccccc2)COC(c2ccc(OCCCO)cc2)=N1"
  measuredEndpoint: "composite z-score"
  reported: 0.0833
- molecule: "CN(C)CCCC[C@@H]1NC(=O)[C@H]2C[C@@H](C(=O)O)[C@@H](c3cccc(OCCO)c3)N2C1=O"
  measuredEndpoint: "composite z-score"
  reported: 0.105
- molecule: "C=CCC(OC(C)=O)[C@@H]1[C@@H](N(Cc2cc3ccccc3o2)C(=O)Cc2ccc(OC)cc2)c2cc(OCCCO)ccc2N1C(=O)Cc1ccc2ccccc2c1 (stereo partly specified)"
  measuredEndpoint: "composite z-score"
  reported: -0.377
- molecule: "COCCOC(=O)N1C(=O)[C@@]2(c3cc(C#CC4=CCCCC4)ccc31)[C@H](C(=O)N1CCc3cc(OC)c(OC)cc3C1)[C@H]1C(=O)O[C@H](c3ccccc3)[C@H](c3ccccc3)N1[C@@H]2c1ccc(O)cc1"
  measuredEndpoint: "composite z-score"
  reported: 1.15

* * *

System: Sonic hedgehog protein (Shh)
assayComment: small-molecule binders of Shh protein, primary screen, biochemical, small-molecule microarray, 635/667 nm fluorescence (AID 1151);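 further: Shh protein binding to compounds spotted on small-molecule microarray slides; score combines spot fluorescence intensity with signal-to-noise across triplicate slides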
cond: small-molecule microarray binding, 635 nm fluorescence; higher = more signal
Listing of recorded composite z-score by entry.
measuredEndpoint: composite z-score

- compound: "C=C(CCCC)/C(=C/C[C@H](OC(C)=O)c1cccc(OCCO)c1)c1cc(C(=O)OC)ccc1OC"
  targetOfAssay: "Sonic hedgehog protein (Shh)"
  reported: 0.454
- compound: "CCCCNC(=O)c1ccc(C#C[Si](C)(C)C)c(OC(C)=O)c1"
  targetOfAssay: "Sonic hedgehog protein (Shh)"
  reported: 0.985
- compound: "[N-]=[N+]=NCc1ccccc1[C@H]1OC(c2ccc(OCCCO)cc2)=N[C@@]1(Cc1ccccc1)C(=O)N1CCOCC1"
  targetOfAssay: "Sonic hedgehog protein (Shh)"
  reported: -0.346
- compound: "CC(=O)n1cc(C(O)C2C=CC3C(=O)N(c4ccccc4)C(=O)C3N2Nc2ccccc2F)c2ccccc21 (stereo unspecified)"
  targetOfAssay: "Sonic hedgehog protein (Shh)"
  reported: -0.813
- compound: "CCCCC(=C=CC[C@H](O)c1ccc(OCCO)cc1)C[C@H](O)c1ccccn1"
  targetOfAssay: "Sonic hedgehog protein (Shh)"
  reported: 1.17
- compound: "C=C(CCCC)C(=O)CC[C@H](OC(=O)c1cccnc1)c1ccc(CO)o1"
  targetOfAssay: "Sonic hedgehog protein (Shh)"
  reported: 1.6
- compound: "Cc1ccc(S[C@]2(C(=O)NCCCN(C)C)CC(=O)N(Cc3ccccc3Cl)[C@@H]2c2ccc(CO)cc2I)cc1"
  targetOfAssay: "Sonic hedgehog protein (Shh)"
  reported: -0.995
- compound: "CC(=O)NCCCC[C@@H]1NC(=O)[C@H]2C[C@@H](C(=O)NCCCCCC[N+](C)(C)C)[C@@H](c3ccc(O)cc3)N2C1=O"
  targetOfAssay: "Sonic hedgehog protein (Shh)"
  reported: 2.1
- compound: "CN1C(=O)C2C(C1=O)C1C=C(c3ccc(CO)cc3)C2C(c2cccs2)N1C (stereo unspecified)"
  targetOfAssay: "Sonic hedgehog protein (Shh)"
  reported: 0.237
- compound: "CN(C)CCCNC(=O)[C@@]1(Cc2ccccc2I)c2ccccc2C(=O)N(Cc2ccccc2)[C@H]1c1ccc(CO)cc1"
  targetOfAssay: "Sonic hedgehog protein (Shh)"
  reported: 1.41
- compound: "CC(C)(C)OC(=O)CC[C@]1(C(=O)N2CCOCC2)N=C(c2ccc(OCCCO)cc2)O[C@H]1c1ccccc1CN=[N+]=[N-]"
  targetOfAssay: "Sonic hedgehog protein (Shh)"
  reported: 0.242
- compound: "C#CCN(C/C=C/c1ccccc1)[C@H](CO[Si](C)(C)C(C)(C)C)c1ccccc1"
  targetOfAssay: "Sonic hedgehog protein (Shh)"
  reported: 0.0896
- compound: "C=CCC(OC(C)=O)[C@@H]1[C@@H](N(Cc2cccc3ccccc23)C(=O)c2cccc3ccccc23)c2cc(OCCCO)ccc2N1C(=O)Cc1ccc2ccccc2c1 (stereo partly specified)"
  targetOfAssay: "Sonic hedgehog protein (Shh)"
  reported: 0.882
- compound: "COCCOC(=O)N1C(=O)[C@@]2(c3cc(C#CC4(O)CCCCCC4)ccc31)[C@H](C(=O)N1CCc3cc(OC)c(OC)cc3C1)[C@H]1C(=O)O[C@H](c3ccccc3)[C@H](c3ccccc3)N1[C@@H]2c1ccc(O)cc1"
  targetOfAssay: "Sonic hedgehog protein (Shh)"
  reported: 0.774
- compound: "COC(=O)[C@@]1(Cc2ccc(OC)cc2)[C@H]2c3cc(C(=O)N4CCCC4)n(CCc4ccc(OC)c(Br)c4)c3C[C@H]2CN1C(=O)c1ccccc1"
  targetOfAssay: "Sonic hedgehog protein (Shh)"
  reported: -0.908
- compound: "CC(=O)NCCCC[C@@H]1NC(=O)[C@@H]2C[C@H](C(=O)NCCCCCC[N+](C)(C)C)[C@H](c3ccc(O)cc3)N2C1=O"
  targetOfAssay: "Sonic hedgehog protein (Shh)"
  reported: 1.75
